Biological target: bovine cardiac myofibrils (full-length cardiac myosin ATPase in the native sarcomere) (Bos taurus (Bovine))
Sequence (Q9BE39 whole entry): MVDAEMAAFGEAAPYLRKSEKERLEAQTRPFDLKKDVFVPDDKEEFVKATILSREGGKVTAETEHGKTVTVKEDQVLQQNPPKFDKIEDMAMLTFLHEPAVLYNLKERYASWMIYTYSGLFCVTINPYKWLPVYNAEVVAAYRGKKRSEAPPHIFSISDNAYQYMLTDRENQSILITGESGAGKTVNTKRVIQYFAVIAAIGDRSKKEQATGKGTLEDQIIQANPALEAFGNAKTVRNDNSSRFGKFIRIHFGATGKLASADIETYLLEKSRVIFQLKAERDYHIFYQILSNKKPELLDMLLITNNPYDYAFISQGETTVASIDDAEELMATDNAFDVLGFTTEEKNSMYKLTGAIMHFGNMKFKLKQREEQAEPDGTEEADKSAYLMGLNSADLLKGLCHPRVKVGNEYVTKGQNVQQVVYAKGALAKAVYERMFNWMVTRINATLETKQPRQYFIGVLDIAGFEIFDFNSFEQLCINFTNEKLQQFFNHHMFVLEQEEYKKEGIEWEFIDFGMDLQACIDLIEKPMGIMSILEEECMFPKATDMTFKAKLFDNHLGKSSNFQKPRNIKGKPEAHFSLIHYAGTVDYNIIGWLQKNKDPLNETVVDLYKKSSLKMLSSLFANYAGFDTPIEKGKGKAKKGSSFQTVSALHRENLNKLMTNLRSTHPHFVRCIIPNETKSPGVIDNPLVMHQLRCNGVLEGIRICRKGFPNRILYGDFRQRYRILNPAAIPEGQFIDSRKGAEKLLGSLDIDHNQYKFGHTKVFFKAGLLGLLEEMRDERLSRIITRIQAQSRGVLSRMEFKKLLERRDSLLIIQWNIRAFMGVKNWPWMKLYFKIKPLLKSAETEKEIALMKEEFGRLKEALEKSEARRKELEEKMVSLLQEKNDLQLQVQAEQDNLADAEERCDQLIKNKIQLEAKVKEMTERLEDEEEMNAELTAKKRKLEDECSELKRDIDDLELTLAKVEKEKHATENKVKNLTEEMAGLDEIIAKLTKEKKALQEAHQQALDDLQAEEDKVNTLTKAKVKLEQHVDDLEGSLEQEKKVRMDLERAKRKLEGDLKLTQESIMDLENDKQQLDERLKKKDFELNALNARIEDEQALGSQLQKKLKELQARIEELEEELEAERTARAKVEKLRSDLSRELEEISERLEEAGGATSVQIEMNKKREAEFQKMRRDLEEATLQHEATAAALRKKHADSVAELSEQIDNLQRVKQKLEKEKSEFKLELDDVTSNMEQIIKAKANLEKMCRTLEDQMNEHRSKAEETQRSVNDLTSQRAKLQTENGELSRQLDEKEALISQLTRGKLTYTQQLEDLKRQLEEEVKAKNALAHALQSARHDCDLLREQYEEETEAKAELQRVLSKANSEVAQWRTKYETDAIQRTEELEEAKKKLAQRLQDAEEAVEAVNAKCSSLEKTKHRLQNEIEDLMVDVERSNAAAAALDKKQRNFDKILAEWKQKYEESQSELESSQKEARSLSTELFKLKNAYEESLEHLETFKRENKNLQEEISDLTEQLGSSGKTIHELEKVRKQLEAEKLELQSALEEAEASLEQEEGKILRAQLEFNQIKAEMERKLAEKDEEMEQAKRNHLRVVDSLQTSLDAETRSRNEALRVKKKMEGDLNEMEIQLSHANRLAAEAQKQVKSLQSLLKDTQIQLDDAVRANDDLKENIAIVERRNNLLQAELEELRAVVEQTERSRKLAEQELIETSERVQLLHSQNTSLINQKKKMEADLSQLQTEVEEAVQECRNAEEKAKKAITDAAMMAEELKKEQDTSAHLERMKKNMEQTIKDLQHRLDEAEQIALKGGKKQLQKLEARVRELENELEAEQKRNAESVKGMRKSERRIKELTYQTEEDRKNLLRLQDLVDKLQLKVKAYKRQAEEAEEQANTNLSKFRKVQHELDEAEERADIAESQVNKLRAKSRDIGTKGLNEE
Sequence (P85100 whole entry partner): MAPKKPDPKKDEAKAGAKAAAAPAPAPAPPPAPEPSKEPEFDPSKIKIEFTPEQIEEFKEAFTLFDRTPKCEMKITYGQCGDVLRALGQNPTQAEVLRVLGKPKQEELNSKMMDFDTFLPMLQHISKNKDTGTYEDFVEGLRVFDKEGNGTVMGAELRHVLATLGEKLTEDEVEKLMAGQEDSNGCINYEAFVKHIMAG
Sequence (Q3SZE5 whole entry partner): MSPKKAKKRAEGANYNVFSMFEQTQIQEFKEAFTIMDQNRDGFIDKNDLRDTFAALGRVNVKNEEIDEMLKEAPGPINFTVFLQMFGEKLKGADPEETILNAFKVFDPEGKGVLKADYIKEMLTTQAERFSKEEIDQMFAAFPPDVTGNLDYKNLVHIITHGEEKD
Assay: Skinned bovine cardiac myofibril ATPase assay (PK/LDH-coupled)
Conditions: Ca2+ activating to 75% of maximal rate, read-out: CDMF75 IC50
quantityName: pIC50
Please report pIC50 as the negative decimal logarithm of the molar concentration, giving only the number.

>  <compound>
COCc1nc(-c2ccc3c(c2)CC[C@H]3NC(=O)c2cc(OC)no2)no1

>  <pIC50>
5.43

$$$$

Report pIC50 for Cc1nc(-c2ccc3c(c2)OCC3NC(=O)c2cnc(C)o2)no1 (stereo not drawn) please. 5.15

Report pIC50 for `O=C(N[C@@H]1CCc2cc(-c3noc(C(F)F)n3)ccc21)c1cc(O)no1` please. 5.13

Report pIC50 for `Cc1noc(-c2ccc3c(c2)OC[C@H]3NC(=O)c2cnn(C)c2C)n1` please. 5.18

Report pIC50 for Cc1nc(-c2ccc3c(c2)CCC3NC(=O)Nc2ccccn2)no1 (stereo not drawn) please. 5.15

Report pIC50 for `CCc1nc(-c2cc(Cl)c3c(c2)CC[C@H]3NC(=O)c2cnn(C)c2)no1` please. 5.37

The measured values listed here are drawn from patent US12065436B2.
